System: Ba/F3 (JAK2 V617F) cells
Assay: Proliferation inhibition assay (CellTiter-Glo), Ba/F3 JAK2 V617F
Assay type: cell-based
Settings: Mus musculus, BaF3; without IL3, 72 h; read-out: Ba/F3 JAK2 V617F, CC50 3 days
Please go through the items and note down their CC50.

Quick batch: CC50 for everything below.
1. COc1c(Nc2nc(Nc3cnn(C)c3)ncc2C(N)=O)cccc1-c1ccccn1 [Compound 2]
2. COc1c(Nc2nc(Nc3cnn(C4CCCCC4)c3)ncc2C(N)=O)cccc1-c1ccccn1 [Compound 39]
3. COc1c(Nc2nc(Nc3cnn(C4CCCCC4)c3)ncc2C(N)=O)cccc1-c1ncn(C)n1 [Compound 11]
4. COc1c(Nc2nc(Nc3cnn(C4CCCCC4)c3)ncc2C(N)=O)cccc1-c1nc2ccccc2o1 [Compound 45]
5. COc1c(Nc2nc(Nc3cnn(C4CCOCC4)c3)ncc2C(N)=O)cccc1-c1nc2ccccc2o1 [Compound 44]
6. COc1c(Nc2nc(Nc3cnn(C)c3)ncc2C(N)=O)cccc1-c1nnc(C)o1 [Compound 3]

Response line:
≤ 500 nM
≤ 500 nM
≤ 500 nM
500 to 1000 nM
≤ 500 nM
5000 to 10000 nM

Quick batch: CC50 for everything below.
1. COCCCn1cc(Nc2ncc(C(N)=O)c(Nc3cccc(-c4nc5ccccc5o4)c3OC)n2)cn1 [Compound 52]
2. COCCCn1cc(Nc2ncc(C(N)=O)c(Nc3cccc(-c4ncn(CCCOC)n4)c3OC)n2)cn1 [Compound 53]

Response line:
1. ≤ 500 nM
2. 1000 to 5000 nM

---

Experiment: Proliferation inhibition assay (CellTiter-Glo), Ba/F3 JAK2 wt
Type: cell-based
Details: mouse, Ba/F3 (JAK2 wt) cells, with 10 ng/ml rmIL-3, 72 h; read-out: Ba/F3 JAK2 wt + IL3, CC50 3 days
Readout: CC50 at 72 h

# Molecular string, CC50 at 72 h
data = [
    ("COc1c(Nc2nc(Nc3cnn(C4CCNCC4)c3)ncc2C(N)=O)cccc1-c1nc2ccccc2o1", "> 10 µM"),
    ("COc1c(Nc2nc(Nc3cnn(CCC(C)C)c3)ncc2C(N)=O)cccc1-c1ncn(C)n1", "5 to 10 µM"),
    ("COc1c(Nc2nc(Nc3cnn(C4CCN(C)CC4)c3)ncc2C(N)=O)cccc1-c1nc2ccccc2o1", "1 to 5 µM"),
    ("COc1c(Nc2nc(Nc3cnn(C4CCCCC4)c3)ncc2C(N)=O)cccc1-c1nc2ccccc2o1", "5 to 10 µM"),
    ("COc1c(Nc2nc(Nc3cnn(C4CCN(C(C)C)CC4)c3)ncc2C(N)=O)cccc1-c1ccccn1", "1 to 5 µM"),
    ("COc1c(Nc2nc(Nc3cnn(CCN(CC(C)C)CC(C)C)c3)ncc2C(N)=O)cccc1-c1nc2ccccc2o1", "5 to 10 µM"),
]

Prompt line: Would you kindly share the measured CC50 at 72 h for COc1c(Nc2nc(Nc3cnn(C4CCN(C(C)C)CC4)c3)ncc2C(N)=O)cccc1-c1nc2ccccc2o1 ?
Response line: 1 to 5 µM

---

Target: JAK2 JH2 (Homo sapiens, UniProt O60674)
Construct: Enzyme: JAK2 JH2, His-Avi-Tag, Biotin-Labeled (BPS Bioscience, Cat #79074) 1 nM; His; purchased BPS Bioscience 79074
Sequence (O60674 545-809 limits assumed): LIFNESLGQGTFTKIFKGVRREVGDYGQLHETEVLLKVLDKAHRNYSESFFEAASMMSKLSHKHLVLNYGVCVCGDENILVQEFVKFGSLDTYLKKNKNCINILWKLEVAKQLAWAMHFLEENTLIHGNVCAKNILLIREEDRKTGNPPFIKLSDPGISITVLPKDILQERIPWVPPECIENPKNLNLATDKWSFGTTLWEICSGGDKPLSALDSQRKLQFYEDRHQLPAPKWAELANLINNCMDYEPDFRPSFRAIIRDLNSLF
Test: JAK2 JH2 TR-FRET Assay
Assay type: binding
Settings: JAK2 JH2 1 nM, Tracer ZE84-0003 10 nM
pEC50: −log10 of the molar value.
Please go through the items and note down their pEC50.

Quick batch: pEC50 for everything below.
1. COc1c(Nc2nc(Nc3cnn(C4CCCCC4)c3)ncc2C(N)=O)cccc1-c1ncn(C)n1 [Compound 11]
2. COc1c(Nc2nc(Nc3cnn(C4CCN(C)CC4)c3)ncc2C(N)=O)cccc1-c1ccccn1 [Compound 47]
3. CCCCCCCCn1cc(Nc2ncc(C(N)=O)c(Nc3cccc(-c4ncn(C)n4)c3OC)n2)cn1 [Compound 25]
4. COCCCn1cc(Nc2ncc(C(N)=O)c(Nc3cccc(-c4ncn(CCCOC)n4)c3OC)n2)cn1 [Compound 53]
5. COc1c(Nc2nc(Nc3cnn(-c4ccccc4)c3)ncc2C(N)=O)cccc1-c1ncn(C)n1 [Compound 6]
6. COc1c(Nc2nc(Nc3cnn(C4CCOCC4)c3)ncc2C(N)=O)cccc1-c1nc2ccccc2o1 [Compound 44]

Response line:
1. ≥ 8.00
2. < 7.00
3. < 7.00
4. 7.30 to 8.00
5. 7.30 to 8.00
6. 7.30 to 8.00

Quick batch: pEC50 for everything below.
1. COc1c(Nc2nc(Nc3cnn(C4CCN(C(C)C)CC4)c3)ncc2C(N)=O)cccc1-c1ncn(C)n1 [Compound 35]
2. COc1c(Nc2nc(Nc3c(C)nn(C)c3C)ncc2C(N)=O)cccc1-c1ncn(C)n1 [Compound 17]
3. COc1c(Nc2nc(Nc3cnn(CCN(C)C)c3)ncc2C(N)=O)cccc1-c1ncn(C)n1 [Compound 5]
4. COc1c(Nc2nc(Nc3cnn(CCCN(C)C)c3)ncc2C(N)=O)cccc1-c1nc2ccccc2o1 [Compound 46]
5. CCn1nc(C)c(Nc2ncc(C(N)=O)c(Nc3cccc(-c4ncn(C)n4)c3OC)n2)c1C [Compound 18]

Response line:
1: 7.30 to 8.00; 2: < 7.00; 3: 7.30 to 8.00; 4: 7.00 to 7.30; 5: < 7.00

Quick batch: pEC50 for everything below.
1. COc1c(Nc2nc(Nc3cnn(CCN(CC(C)C)CC(C)C)c3)ncc2C(N)=O)cccc1-c1nc2ccccc2o1 [Compound 34]
2. COc1c(Nc2nc(Nc3cnn(C(C)C)c3)ncc2C(N)=O)cccc1-c1nc2ccccc2o1 [Compound 16]
3. COc1c(Nc2nc(Nc3cnn(C45CC6CC(CC(C6)C4)C5)c3)ncc2C(N)=O)cccc1-c1ccccn1 [Compound 41]
4. COc1c(Nc2nc(Nc3cnn(CC(F)(F)F)c3)ncc2C(N)=O)cccc1-c1nc2ccccc2o1 [Compound 57]
5. COc1c(Nc2nc(Nc3cnn(C4CCCCC4)c3)ncc2C(N)=O)cccc1-c1nc2ccccc2o1 [Compound 45]

Response line:
1: < 7.00; 2: 7.30 to 8.00; 3: < 7.00; 4: < 7.00; 5: < 7.00

---

Tested on: Ba/F3 (JAK2 V617F) cells
Test: Proliferation inhibition assay (CellTiter-Glo), Ba/F3 JAK2 V617F
Format: cell-based
Details: Mus musculus, BaF3; without IL3, 72 h; read-out: Ba/F3 JAK2 V617F, CC50 3 days
Readout: CC50

# Compound, CC50
data = [
    ("COc1c(Nc2nc(Nc3cnn(CCN(CC(C)C)CC(C)C)c3)ncc2C(N)=O)cccc1-c1nc2ccccc2o1 [Compound 34]", "1000 to 5000 nM"),
    ("COc1c(Nc2nc(Nc3cnn(C4CCNCC4)c3)ncc2C(N)=O)cccc1-c1ncn(C)n1 [Compound 7, 2,2,2-trifluoroacetate]", "1000 to 5000 nM"),
]

Consider now this further compound.
Prompt line: Would you kindly share the measured CC50 for COc1c(Nc2nc(Nc3cnn(CC(F)(F)F)c3)ncc2C(N)=O)cccc1-c1ncn(C)n1 [Compound 59] ?
Response line: 1000 to 5000 nM

---

Test: Proliferation inhibition assay (CellTiter-Glo), Ba/F3 JAK2 wt
Assay type: cell-based
Conditions: mouse, Ba/F3 (JAK2 wt) cells, without IL3, 72 h; read-out: Ba/F3 JAK2 wt, CC50 3 days
Please go through the items and note down their CC50 at 72 h.

Below are worked cases with known answers.
# Compound, Test result
rows = [
    ("COc1c(Nc2nc(Nc3cnn(C4CCNCC4)c3)ncc2C(N)=O)cccc1-c1nc2ccccc2o1", "> 10 µM"),
    ("COc1c(Nc2nc(Nc3cnn(C)c3)ncc2C(N)=O)cccc1-c1nnc(C)o1", "> 10 µM"),
    ("COc1c(Nc2nc(Nc3cnn(CCCN(C)C)c3)ncc2C(N)=O)cccc1-c1ncn(C)n1", "> 10 µM"),
    ("COc1c(Nc2nc(Nc3cnn(C)c3)ncc2C(N)=O)cccc1-c1ncn(C)n1", "> 10 µM"),
    ("CCCCCCn1cc(Nc2ncc(C(N)=O)c(Nc3cccc(-c4ncn(C)n4)c3OC)n2)cn1", "5 to 10 µM"),
]

Quick batch: CC50 at 72 h for everything below.
1. COc1c(Nc2nc(Nc3cnn(C4CCOCC4)c3)ncc2C(N)=O)cccc1-c1ncn(C)n1
2. COc1c(Nc2nc(Nc3cnn(C)c3)ncc2C(N)=O)cccc1-c1nc2ccccc2o1
3. COc1c(Nc2nc(Nc3cnn(C4CCNCC4)c3)ncc2C(N)=O)cccc1-c1ncn(C)n1 [Compound 7, 2,2,2-trifluoroacetate]
4. CCn1nc(C)c(Nc2ncc(C(N)=O)c(Nc3cccc(-c4ncn(C)n4)c3OC)n2)c1C
5. COc1c(Nc2nc(Nc3cnn(C4CCCCC4)c3)ncc2C(N)=O)cccc1-c1ncn(C)n1
6. COc1c(Nc2nc(Nc3cnn(C)c3)ncc2C(N)=O)cccc1-c1ccccn1

Response line:
> 10 µM
> 10 µM
> 10 µM
> 10 µM
1 to 5 µM
> 10 µM
